# Target entity: recombinant mouse prion protein immobilised for SPR (mPrP) (Mus musculus, UniProt P04925)
# Sequence (P04925 23-230): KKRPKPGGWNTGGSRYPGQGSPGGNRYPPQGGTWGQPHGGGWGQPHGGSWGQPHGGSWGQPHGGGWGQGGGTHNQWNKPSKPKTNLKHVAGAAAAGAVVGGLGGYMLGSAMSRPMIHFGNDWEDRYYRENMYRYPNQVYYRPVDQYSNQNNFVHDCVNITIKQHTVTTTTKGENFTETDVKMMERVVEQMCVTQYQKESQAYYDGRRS
# Test name: SPR
# Test conditions: both partners purified
Endpoint: Kd (µM)
Expressed in µM, but write only the number.

Binder	Kd [µM]
pomolog lcY50A (POM1 scFv, light chain Y50A) (scFv, V domains shown) VH: QVQLQQSGTELVMPGASVKMSCKASGYTFTDYWMHWVKQRPGQGLEWIGSIDPSDSYTSHNEKFKGKATLTVDESSSTAYMQLSSLTSEDSAVYFCSRSGYGYYAMEYWGQGTSVTVSS VL: DIVLTQSPAILSVSPGERVSFSCRASQNIGTSIHWYQQRTNESPRLIIKAASESISGIPSRFSGSGSGTDFTLSINSVESEDIADYYCQQSNTWPYTFGGGTKLELK	0.313
pomolog hcD52A (POM1 scFv, heavy chain D52A) (scFv, V domains shown) VH: QVQLQQSGTELVMPGASVKMSCKASGYTFTDYWMHWVKQRPGQGLEWIGSIAPSDSYTSHNEKFKGKATLTVDESSSTAYMQLSSLTSEDSAVYFCSRSGYGYYAMEYWGQGTSVTVSS VL: DIVLTQSPAILSVSPGERVSFSCRASQNIGTSIHWYQQRTNESPRLIIKYASESISGIPSRFSGSGSGTDFTLSINSVESEDIADYYCQQSNTWPYTFGGGTKLELK	0.103

Value of Kd reported for the binder pomolog hcY104A (POM1 scFv, heavy chain Y104A) (scFv, V domains shown) VH: QVQLQQSGTELVMPGASVKMSCKASGYTFTDYWMHWVKQRPGQGLEWIGSIDPSDSYTSHNEKFKGKATLTVDESSSTAYMQLSSLTSEDSAVYFCSRSGYGYAAMEYWGQGTSVTVSS VL: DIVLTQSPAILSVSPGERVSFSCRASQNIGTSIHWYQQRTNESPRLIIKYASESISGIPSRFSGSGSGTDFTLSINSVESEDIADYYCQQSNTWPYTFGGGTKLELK is 0.0088
